Parameter: IC50. Scope: all listed entries.
- System under test: CETP (Homo sapiens)
- Sequence (P11597 18-493): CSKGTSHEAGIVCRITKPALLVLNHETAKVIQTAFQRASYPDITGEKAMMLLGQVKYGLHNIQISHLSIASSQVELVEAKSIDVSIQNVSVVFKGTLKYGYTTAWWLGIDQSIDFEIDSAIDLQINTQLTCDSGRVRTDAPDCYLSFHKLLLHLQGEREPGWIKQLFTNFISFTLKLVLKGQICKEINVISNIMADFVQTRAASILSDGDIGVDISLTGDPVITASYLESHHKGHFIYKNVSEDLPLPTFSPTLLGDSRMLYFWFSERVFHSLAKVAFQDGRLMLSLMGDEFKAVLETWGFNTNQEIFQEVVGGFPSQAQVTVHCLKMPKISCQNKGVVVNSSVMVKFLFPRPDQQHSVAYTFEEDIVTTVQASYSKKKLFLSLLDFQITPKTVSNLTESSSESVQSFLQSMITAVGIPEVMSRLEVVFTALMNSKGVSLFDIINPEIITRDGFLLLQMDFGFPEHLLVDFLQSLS
- Test description: Inhibitory activity against CETP in vitro (fluorescent BODIPY-CE transfer, donor/acceptor microemulsion, human plasma)
- Recorded conditions: plasma from a healthy volunteer diluted to 0.64%; preincubation with test solution 37° C. 24 hours, then 3 hours with donor/acceptor microemulsion; fluorescence Ex.550 nm/Em.600 nm; read-out: IC50 (inhibition of CETP activity)
Endpoint: IC50 (nM)

> print(dat)
                                   molecule    system.under.test  output.unit  recorded.value
1  CCOC(=O)N1c2ccc(C(F)(F)F)cc2[C@@H](N(Cc2cc(C#N)cc(C(F)(F)F)c2)c2ncc(N3CCC(C(=O)O)CC3)cn2)C[C@H]1CC  CETP (Homo sapiens)           nM             2.7
2  CCOC(=O)N1c2ccc(C(F)(F)F)cc2C(N(Cc2cc(C(F)(F)F)cc(C(F)(F)F)c2)c2ncc(OCCCCC(=O)O)cn2)CC1CC (stereo not shown)  CETP (Homo sapiens)           nM            0.66
3  CCOC(=O)N1c2ccc(C(F)(F)F)cc2[C@@H](N(Cc2cc(C(F)(F)F)cc(C(F)(F)F)c2)c2ccc(OCCCC(=O)O)cn2)C[C@H]1CC  CETP (Homo sapiens)           nM            0.53
4  CCOC(=O)N1c2ccc(C(F)(F)F)cc2[C@@H](N(Cc2cc(C(F)(F)F)cc(C(F)(F)F)c2)c2ncc(N(C)CCC(=O)O)cn2)C[C@H]1CC  CETP (Homo sapiens)           nM            0.89
